Experiment: Solubility of crystalline form A
Format: physicochemical
Conditions: pH 1 solution (0.1N HCl), simulated gastric fluid; in pH 1
assay_readout: solubility (mg/mL)
Please give a number only; it is taken to be in mg/mL.

## Input # solubility lookup, item Cc1cc(Nc2ncc(Cl)c(Nc3ccccc3S(=O)(=O)C(C)C)n2)c(OC(C)C)cc1C1CCNCC1 [Form A]
## Output 11

The reported numbers originate from patent US9309229B2.
